- procedure.text: Metabolic stability in rat liver microsomes (RLMs)
- experimental.conditions: rat, rat liver microsomes, pH 7.4, Half Life Mean, mean of R1-R3
metric.name: half-life at 10 μM (min)
Provide the reading as a plain figure in min.

(Q) // fetch half-life at 10 μM given entry COc1ccc([C@@H]2Sc3ccccc3N(CCN(C)C)C(=O)[C@@H]2OC(C)=O)cc1 [Diltiazem, diltiazem, reference compound]
(A) 13.4

====

- system.name: porcine pepsin (Sus scrofa, UniProt P00791)
- Construct: 0.32 g of porcine pepsin (Sigma-Aldrich, P7125) was dissolved under gentle agitation; purchased Sigma-Aldrich P7125
- Sequence (P00791 60-385): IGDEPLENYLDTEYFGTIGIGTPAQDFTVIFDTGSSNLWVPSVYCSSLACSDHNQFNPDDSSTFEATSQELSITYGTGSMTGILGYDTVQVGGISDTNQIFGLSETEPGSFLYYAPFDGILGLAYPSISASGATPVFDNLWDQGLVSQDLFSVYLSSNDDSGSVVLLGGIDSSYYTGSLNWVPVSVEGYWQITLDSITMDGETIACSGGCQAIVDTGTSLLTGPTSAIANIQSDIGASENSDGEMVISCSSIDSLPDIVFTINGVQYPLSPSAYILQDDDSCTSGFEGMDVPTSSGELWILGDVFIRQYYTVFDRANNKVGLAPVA
- procedure.text: Peptide stability in simulated gastric fluid (SGF)
- Assay type: in vitro ADME
- Set-up: dose or concentration left out as unconfirmed
- experimental.conditions: pig, simulated gastric fluid (SGF) with porcine pepsin; 8 h, 37 °C, pH 1.2; read-out: Proteolytic stability: SGF (8 h) % remaining
Square brackets hold non-standard residues; d marks the D form. Peptide text beside a SMILES is read from it. NMeY = CN[C@@H](Cc1ccc(O)cc1)C(=O)O; NMeL = CN[C@@H](CC(C)C)C(=O)O; dNMeL = CN[C@H](CC(C)C)C(=O)O
metric.name: remaining at 8 h (%)
Write down the numeric answer in % and omit the unit.

(Q) State its remaining at 8 h for this compound: CC(C)C[C@@H]1NC(=O)[C@H](Cc2ccc(O)cc2)N(C)C(=O)[C@H]2CCCN2C(=O)[C@H](CC(C)C)NC(=O)[C@H](CC(C)C)N(C)C(=O)[C@@H](CC(C)C)N(C)C1=O [1NMe3, reference compound] (cyclo(L[dNMeL][NMeL]L[dP][NMeY]))
(A) 93

====

- procedure.text: in vivo
- experimental.conditions: male, Wistar Han, rat, iv
Square brackets hold non-standard residues; d marks the D form. Peptide text beside a SMILES is read from it. NMeY = CN[C@@H](Cc1ccc(O)cc1)C(=O)O; NMeL = CN[C@@H](CC(C)C)C(=O)O; dNMeL = CN[C@H](CC(C)C)C(=O)O
metric.name: half-life (h)
Field format: number, assumed h, no unit text.

(Q) Please give measured half-life of the following entry: CC(C)C[C@@H]1NC(=O)[C@H](Cc2ccc(O)cc2)N(C)C(=O)[C@H]2CCCN2C(=O)[C@H](CC(C)C)NC(=O)[C@H](CC(C)C)N(C)C(=O)[C@@H](CC(C)C)N(C)C1=O [1NMe3, reference compound] (cyclo(L[dNMeL][NMeL]L[dP][NMeY]))
(A) 1.83

====

- procedure.text: Passive artificial membrane permeability (PAMPA)
- experimental.conditions: PAMPA, pH 7.4, apparent permeability logPapp (PAMPA), 50 μM, pH 7.4, 12–18 h
metric.name: Papp at 50 μM (×10⁻⁶ cm/s)
The response must be a number in ×10⁻⁶ cm/s with no trailing unit.

(Q) Give Papp at 50 μM for CC(=O)CC(c1ccccc1)c1c(O)c2ccccc2oc1=O (stereo not shown) [Warfarin, warfarin, reference compound]
(A) 5.01

====

- system.name: human α-thrombin (Homo sapiens, UniProt P00734)
- procedure.text: Sub-library screen for active and permeable cyclic peptides (PAMPA plus thrombin inhibition)
- Type: biochemical
- experimental.conditions: PAMPA acceptor well after 14 h, 5 μM donor; crude; slopes normalized to DMSO
# Residual thrombin activity: Top sample per entry
Enter the number alone.

Illustrative cases are given below, each with its answer.
(Q) # return recorded Residual thrombin activity: Top sample for input N#Cc1ccc(C[C@@H]2NC(=O)[C@@H](NC(=O)c3ccc(Cl)s3)CCCSCCS(=O)(=O)CCSCCNC(=O)C[C@H]3CCCN3C2=O)cc1 [C3-X35-L2]
(A) 106.0

(Q) For the compound O=C1CSCCNC(=O)C[C@H]2CCCN2C(=O)[C@H](Cc2ccc(C(F)(F)F)cc2)NC(=O)[C@@H](NC(=O)c2ccc(Cl)s2)CCSC1 [C2-X36-L7] , report Residual thrombin activity: Top sample.
(A) 102.7

(Q) Given Cc1cccc(C[C@@H]2NC(=O)[C@@H](NC(=O)c3ccc(Cl)s3)CCSCCS(=O)(=O)CCSCCNC(=O)C[C@H]3CCCN3C2=O)c1 [C2-X37-L2] , respond with its Residual thrombin activity: Top sample.
(A) 97.6

(Q) Return Residual thrombin activity: Top sample for the following compound: Cc1cccc(C[C@@H]2NC(=O)[C@@H](NC(=O)c3ccc(Cl)s3)CCCSCc3ccccc3CSCCNC(=O)C[C@H]3CCCN3C2=O)c1 [C3-X37-L6]
(A) 92.8

(Q) For the compound COc1ccc(C[C@@H]2NC(=O)[C@@H](NC(=O)c3ccc(Cl)s3)CSCc3ccccc3CSCCNC(=O)C[C@H]3CCCN3C2=O)cc1 [C1-X33-L6] , give its measured Residual thrombin activity: Top sample value.
(A) 89.9

---
(Q) Write down Residual thrombin activity: Top sample measured for item Cc1cccc(C[C@@H]2NC(=O)[C@@H](NC(=O)c3ccc(Cl)s3)CSCc3cccc(c3)CSCCNC(=O)C[C@H]3CCCN3C2=O)c1 [C1-X37-L5]
(A) 100.9

(Q) Write down Residual thrombin activity: Top sample measured for item O=C1C[C@H]2CCCN2C(=O)[C@@H](Cc2ccccc2)NC(=O)[C@@H](NC(=O)c2ccc(Cl)s2)CSCc2ccccc2CSCCN1 [C1-X31-L6]
(A) 88.4

(Q) For the compound O=C1CSCCNC(=O)C[C@H]2CCCN2C(=O)[C@@H](Cc2ccccc2)NC(=O)[C@@H](NC(=O)c2ccc(Cl)s2)CCSC1 [C2-X31-L7] , give its reported Residual thrombin activity: Top sample.
(A) 102.6

(Q) Give Residual thrombin activity: Top sample for O=C1C[C@H]2CCCN2C(=O)[C@H](Cc2ccccc2)NC(=O)[C@@H](NC(=O)c2ccc(Cl)s2)CSCCS(=O)(=O)CCSCCN1 [C1-X5-L2]
(A) 88.1
